Target: TrkA receptor (Homo sapiens (Human))
Experiment: DiscoverX PathHunter TrkA functional assay (U2OS cells, NGF stimulated)
Settings: U2OS cells expressing TrkA-Prolink and Shc1-EA; compound 1 hour, then EC80 of NGF for 3 hours; luminescence
MEASURED_METRIC: pIC50
On this scale, pIC50 is minus log10 of a concentration expressed in M (mol/L).

Worked examples follow.
COMPOUND: O=C(Nc1cccnc1-c1ccccc1)Nc1c(-c2ccccc2)nc2ccccn12 [Compound 24]
TEST_TARGET: TrkA receptor (Homo sapiens (Human))
MEASURED_METRIC: pIC50
MEAS_VALUE: 6.35
//
COMPOUND: Cc1ncc(NC(=O)Nc2sc(C)nc2-c2ccccc2)c(-c2ccccc2)n1 [Compound 36]
TEST_TARGET: TrkA receptor (Homo sapiens (Human))
MEASURED_METRIC: pIC50
MEAS_VALUE: 5.64
//
COMPOUND: Cc1nc(-c2ccccc2)c(NC(=O)Nc2sc(C)nc2-c2ccccc2)s1 [Compound 35]
TEST_TARGET: TrkA receptor (Homo sapiens (Human))
MEASURED_METRIC: pIC50
MEAS_VALUE: 6.21
//
COMPOUND: Cn1ccnc1-c1cccc(NC(=O)Nc2c(-c3ccccc3)nc3ccccn23)c1 [Compound 27]
TEST_TARGET: TrkA receptor (Homo sapiens (Human))
MEASURED_METRIC: pIC50
MEAS_VALUE: 5.80
//
COMPOUND: Cc1ncc(NC(=O)NCc2cc(F)ccc2C(F)(F)F)c(-c2ccccc2)n1 [Compound 43]
TEST_TARGET: TrkA receptor (Homo sapiens (Human))
MEASURED_METRIC: pIC50
MEAS_VALUE: 5.85

Which pIC50 value belongs to Cc1nc(-c2ccccc2)c(NC(=O)Nc2c(-c3ccccc3)ncn2C)s1 [Compound 33] ? 5.40

Which pIC50 value belongs to O=C(Nc1ccc(C(F)(F)F)cc1Cl)Nc1c(-c2ccccc2)nc2ccccn12 [Compound 22] ? 5.38

Which pIC50 value belongs to Cc1ncc(NC(=O)NCc2ccccc2SC(F)(F)F)c(-c2ccccc2)n1 [Compound 40] ? 6.17

Which pIC50 value belongs to Cc1cc(NC(=O)Nc2cccc(C)c2C)n(-c2ccccc2)n1 [Compound 7] ? 5.32

* * *

Target: TrkA receptor (Homo sapiens (Human), UniProt P04629)
Sequence (P04629 33-796): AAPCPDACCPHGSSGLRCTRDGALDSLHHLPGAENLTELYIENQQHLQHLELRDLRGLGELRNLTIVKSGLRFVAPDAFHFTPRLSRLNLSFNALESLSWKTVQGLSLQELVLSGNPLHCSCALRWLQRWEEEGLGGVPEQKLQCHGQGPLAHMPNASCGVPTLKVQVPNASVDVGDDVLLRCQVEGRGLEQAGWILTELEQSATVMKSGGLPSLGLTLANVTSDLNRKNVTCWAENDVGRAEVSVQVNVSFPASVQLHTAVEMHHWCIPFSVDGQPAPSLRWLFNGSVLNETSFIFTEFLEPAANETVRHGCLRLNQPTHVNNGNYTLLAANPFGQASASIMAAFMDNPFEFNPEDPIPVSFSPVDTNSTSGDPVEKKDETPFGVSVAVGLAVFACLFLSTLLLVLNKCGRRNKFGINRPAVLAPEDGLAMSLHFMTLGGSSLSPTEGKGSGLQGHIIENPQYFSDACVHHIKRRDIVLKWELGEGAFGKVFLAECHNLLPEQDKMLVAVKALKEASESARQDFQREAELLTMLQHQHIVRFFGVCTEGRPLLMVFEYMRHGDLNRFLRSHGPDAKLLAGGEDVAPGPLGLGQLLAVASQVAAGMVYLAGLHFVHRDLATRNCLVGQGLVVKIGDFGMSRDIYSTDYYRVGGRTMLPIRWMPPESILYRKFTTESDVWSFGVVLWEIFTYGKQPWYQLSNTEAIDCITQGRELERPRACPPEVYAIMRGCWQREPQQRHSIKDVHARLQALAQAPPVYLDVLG
Assay: DiscoverX PathHunter TrkA functional assay (U2OS cells, NGF stimulated)
Type: cell-based
Conditions: U2OS cells expressing TrkA-Prolink and Shc1-EA; compound 1 hour, then EC80 of NGF for 3 hours; luminescence
Description: TrkA functional activity was measured using a DiscoverX PathHunter assay. […] That recruitment results in an active B-galactosidase enzyme that is detected by addition of a chemiluminescent substrate. All reagents were purchased from DiscoverX, except for the receptor agonists (NGF, BDNF, NT3) which were purchased from Peprotech. […] The plate is read via luminescence on the Perkin Elmer Envision.
MEASURED_METRIC: pIC50
On this scale, pIC50 is minus log10 of a concentration expressed in M (mol/L).

Worked examples follow.
COMPOUND: O=C(NCc1ccccc1SC(F)(F)F)Nc1ccnn1-c1ccccc1 [Compound 44]
MEAS_VALUE: 6.38
--
COMPOUND: Cc1nc(-c2ccccc2)c(NC(=O)Nc2c(-c3ccccc3)nc3ccccn23)s1 [Compound 26]
MEAS_VALUE: 7.32
--
COMPOUND: Cc1cc(NC(=O)Nc2cc(C)nn2-c2ccccc2)n(-c2ccccc2)n1 [Compound 3]
MEAS_VALUE: 5.57
--
COMPOUND: Cc1cc(NC(=O)Nc2cc(Br)ccn2)n(-c2ccccc2)n1 [Compound 8]
MEAS_VALUE: 5.52
--
COMPOUND: CNC(=O)c1nc2ccccn2c1NC(=O)Nc1c(-c2ccccc2)nc2ccccn12 [Compound 32]
MEAS_VALUE: 6.00
--
COMPOUND: Cc1nc(-c2ccccc2)c(NC(=O)Nc2cccnc2-c2ccccc2)s1 [Compound 37]
MEAS_VALUE: 5.74
--
COMPOUND: Cn1ncc(NC(=O)NCc2ccccc2C(F)(F)F)c1-c1ccccc1 [Compound 42]
MEAS_VALUE: 5.85
--
COMPOUND: COc1ccc(NC(=O)Nc2cc(C)nn2-c2ccccc2)nc1 [Compound 11]
MEAS_VALUE: 5.47

Which pIC50 value belongs to O=C(Nc1cccc2ccccc12)Nc1c(-c2ccccc2)nc2sccn12 [Compound 16] ? 6.54

* * *

Biological target: TrkA receptor (Homo sapiens (Human))
Assay: DiscoverX PathHunter TrkA functional assay (U2OS cells, NGF stimulated)
Conditions: U2OS cells expressing TrkA-Prolink and Shc1-EA; compound 1 hour, then EC80 of NGF for 3 hours; luminescence
pIC50: −log10 of the molar value.
Label rule met when pIC50 >= 6; otherwise rule not met.

SMILES_REPRESENTATION: CCOC(=O)c1nc2ccccn2c1NC(=O)Nc1c(-c2ccccc2)nc2ccccn12
CLASS_LABEL: rule met

Test whether the molecule Cc1onc(-c2ccccc2)c1NC(=O)NCc1ccccc1SC(F)(F)F records pIC50 of 6 or higher. rule met

Test whether the molecule O=C(Nc1ccccn1)Nc1cc(-c2ccncc2)nn1-c1ccccc1 records pIC50 of 6 or higher. rule met

Test whether the molecule Cc1onc(-c2ccccc2)c1NC(=O)NCc1ccccc1C(F)(F)F records pIC50 of 6 or higher. rule met

Test whether the molecule Cc1cc(NC(=O)Nc2cccc(Br)n2)n(-c2ccccc2)n1 records pIC50 of 6 or higher. rule not met

Test whether the molecule Cn1ncc(NC(=O)NCc2ccccc2OC(F)(F)F)c1-c1ccccc1 records pIC50 of 6 or higher. rule not met

Test whether the molecule Cc1cc(NC(=O)Nc2c(-c3ccccc3)nc3ccccn23)n(-c2ccccc2)n1 records pIC50 of 6 or higher. rule met

Test whether the molecule O=C(Nc1ccccn1)Nc1cc(-c2ccccc2)nn1-c1ccccc1 records pIC50 of 6 or higher. rule met

Test whether the molecule Cc1ncc(NC(=O)Nc2ccccn2)c(-c2ccccc2)n1 records pIC50 of 6 or higher. rule not met

Test whether the molecule O=C(Nc1c(-c2ccccc2)nc2ccccn12)Nc1c(-c2ccccc2)nc2ccccn12 records pIC50 of 6 or higher. rule met

Test whether the molecule Cc1nc(-c2ccccc2)c(NC(=O)Nc2c(-c3ccccc3)nc(C)n2C)s1 records pIC50 of 6 or higher. rule not met

Test whether the molecule Cc1cc(NC(=O)Nc2ccccc2-c2ccccc2)n(-c2ccccc2)n1 records pIC50 of 6 or higher. rule met

* * *

Target: TrkA receptor (Homo sapiens (Human), UniProt P04629)
Test: DiscoverX PathHunter TrkA functional assay (U2OS cells, NGF stimulated)
Settings: U2OS cells expressing TrkA-Prolink and Shc1-EA; compound 1 hour, then EC80 of NGF for 3 hours; luminescence
MEASURED_METRIC: pIC50
On this scale, pIC50 is minus log10 of a concentration expressed in M (mol/L).

MOLECULE: O=C(NCc1ccc(F)cc1C(F)(F)F)Nc1ccnn1-c1ccccc1 [Compound 39]
MEAS_VALUE: 5.85
//
MOLECULE: O=C(Nc1c(-c2ccccc2)nc2ccccn12)Nc1c(-c2ccccc2)nc2ncccn12 [Compound 30]
MEAS_VALUE: 5.82
//
MOLECULE: Cc1ncc(NC(=O)Nc2cnc(C)nc2-c2ccccc2)c(-c2ccccc2)n1 [Compound 17]
MEAS_VALUE: 5.85
//
MOLECULE: O=C(NCc1cc(F)ccc1C(F)(F)F)Nc1ccnn1-c1ccccc1 [Compound 38]
MEAS_VALUE: 5.96
//
MOLECULE: Cc1ccc(NC(=O)Nc2ccccn2)c(-c2ccccc2)n1 [Compound 12]
MEAS_VALUE: 5.96

Here is another molecule to look at.
Item: O=C(Nc1c(-c2ccccc2)nc2ccccn12)Nc1c(-c2ccccc2)nc2ccc(Cl)nn12 [Compound 31] Test system: TrkA receptor (Homo sapiens (Human), UniProt P04629) Read-out: pIC50 Value: ? 6.00
